log10 DC50: recorded values
Molecular target: SMARCA2 (Homo sapiens, UniProt P51531)
Construct: endogenous in cells; host or cells: HT1080 (CRISPR HiBiT knock-in clone, generated in house)
Sequence (P51531 whole entry): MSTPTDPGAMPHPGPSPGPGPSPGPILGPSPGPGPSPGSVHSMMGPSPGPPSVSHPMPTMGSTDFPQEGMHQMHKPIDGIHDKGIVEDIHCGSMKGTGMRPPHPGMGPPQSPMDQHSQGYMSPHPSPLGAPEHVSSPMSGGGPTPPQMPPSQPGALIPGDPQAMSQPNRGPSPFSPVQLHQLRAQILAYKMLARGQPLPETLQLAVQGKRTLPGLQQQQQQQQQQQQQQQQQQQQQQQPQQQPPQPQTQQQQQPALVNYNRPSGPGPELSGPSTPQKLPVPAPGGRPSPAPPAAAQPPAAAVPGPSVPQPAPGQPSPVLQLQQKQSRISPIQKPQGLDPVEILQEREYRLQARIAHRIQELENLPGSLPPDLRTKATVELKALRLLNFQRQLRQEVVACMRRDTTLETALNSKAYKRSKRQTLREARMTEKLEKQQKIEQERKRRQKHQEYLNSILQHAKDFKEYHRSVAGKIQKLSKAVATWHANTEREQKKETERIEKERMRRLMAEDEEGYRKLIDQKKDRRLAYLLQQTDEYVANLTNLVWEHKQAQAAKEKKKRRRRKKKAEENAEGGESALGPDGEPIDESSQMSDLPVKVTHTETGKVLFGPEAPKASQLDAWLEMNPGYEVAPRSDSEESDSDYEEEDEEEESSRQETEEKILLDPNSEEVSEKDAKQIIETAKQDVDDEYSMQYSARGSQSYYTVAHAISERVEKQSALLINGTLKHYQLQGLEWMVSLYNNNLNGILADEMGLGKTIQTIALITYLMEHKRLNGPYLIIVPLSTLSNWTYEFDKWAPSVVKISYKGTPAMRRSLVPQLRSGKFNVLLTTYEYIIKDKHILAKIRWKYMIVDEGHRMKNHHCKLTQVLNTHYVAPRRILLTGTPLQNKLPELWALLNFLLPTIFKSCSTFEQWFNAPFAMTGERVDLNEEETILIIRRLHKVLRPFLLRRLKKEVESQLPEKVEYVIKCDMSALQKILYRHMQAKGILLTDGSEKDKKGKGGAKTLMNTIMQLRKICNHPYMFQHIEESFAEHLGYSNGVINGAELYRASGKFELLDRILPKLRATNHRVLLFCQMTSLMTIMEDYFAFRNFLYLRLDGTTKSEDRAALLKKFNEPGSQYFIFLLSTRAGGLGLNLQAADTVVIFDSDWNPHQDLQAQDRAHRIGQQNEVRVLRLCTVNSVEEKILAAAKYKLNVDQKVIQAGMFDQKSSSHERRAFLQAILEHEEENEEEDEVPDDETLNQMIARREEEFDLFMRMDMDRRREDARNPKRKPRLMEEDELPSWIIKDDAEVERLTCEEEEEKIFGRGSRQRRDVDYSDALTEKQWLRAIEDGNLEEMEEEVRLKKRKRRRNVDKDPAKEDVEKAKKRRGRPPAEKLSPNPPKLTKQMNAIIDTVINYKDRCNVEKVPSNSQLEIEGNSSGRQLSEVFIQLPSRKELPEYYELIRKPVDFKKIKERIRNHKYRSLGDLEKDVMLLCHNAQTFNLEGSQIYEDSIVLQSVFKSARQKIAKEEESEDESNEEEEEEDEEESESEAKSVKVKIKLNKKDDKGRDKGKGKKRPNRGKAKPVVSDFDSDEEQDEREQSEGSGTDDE
Assay: SMARCA2 HiBiT degradation assay (cellular)
Type: cell-based
Details: 6 h incubation; HiBiT-tagged SMARCA2, luminescence read-out; table head names A549; read-out: HiBit A549 SMARCA2 IP (nM) 6 h
# values: log10(DC50), units nM

Task: Supply recorded log10 DC50 for Nc1nnc(-c2ccccc2O)cc1N1CC2CCC(C1)N2c1cccc(OC2CCC(CC(=O)N3CC4(C3)CN(C(=O)C3CCN(c5ccc6c(c5)C(=O)N(C5CCC(=O)NC5=O)C6=O)CC3)C4)CC2)c1 (racemic) [Example 31] here.
Result: 2.58

Task: Supply recorded log10 DC50 for Nc1nnc(-c2ccccc2O)cc1N1CC2CCC(C1)N2c1cccc(OC2CCN(C(=O)CN3CCC(c4ccc(NC5CCC(=O)NC5=O)cc4)CC3)CC2)c1 (racemic) [Example 114] here.
Result: 1.91

Task: Supply recorded log10 DC50 for Nc1nnc(-c2ccccc2O)cc1N1CC2CCC(C1)N2c1cccc(CN2CCC(C(=O)N3C[C@@H]4CN(c5ccc6c(c5)C(=O)N(C5CCC(=O)NC5=O)C6=O)C[C@@H]4C3)CC2)c1 (relative stereo) [Example 171] here.
Result: 1.82

Task: Supply recorded log10 DC50 for Nc1nnc(-c2ccccc2O)cc1N1CCC(C(=O)N2CC3(CCN(C(=O)CC4CCN(c5ccc6c(c5)C(=O)N(C5CCC(=O)NC5=O)C6=O)CC4)CC3)C2)(c2ccccc2)CC1 (stereo not shown) [Example 164] here.
Result: 1.62

Task: Supply recorded log10 DC50 for Nc1nnc(-c2ccccc2O)cc1N1CCC(C(=O)N2CC3(CN(C(=O)CCCN4CCC(c5ccc(OC6CCC(=O)NC6=O)cc5)CC4)C3)C2)(c2ccccc2)CC1 (stereo not shown) [Example 123] here.
Result: 1.88

Task: Supply recorded log10 DC50 for Nc1nnc(-c2ccccc2O)cc1N1CC2CCC(C1)N2c1cccc(CN2CCC(C(=O)N3CCN(c4ccc5c(c4)C(=O)N(C4CCC(=O)NC4=O)C5=O)CC3)CC2)c1 (racemic) [Example 95] here.
Result: 1.11

Task: Supply recorded log10 DC50 for Nc1nnc(-c2ccccc2O)cc1N1CCC(C(=O)NCC2CCN(C(=O)CCCN3CCC(c4ccc(NC5CCC(=O)NC5=O)cc4)CC3)CC2)(c2ccccc2)CC1 (stereo not shown) [Example 105] here.
Result: 2.00

Task: Supply recorded log10 DC50 for Nc1nnc(-c2ccccc2O)cc1OC1CCCN(c2ccc(N3CCN(CCCCCCCCCn4cc(CCNc5cccc6c5C(=O)N(C5CCC(=O)NC5=O)C6=O)nn4)CC3)cc2)C1 (stereo not shown) [Example 110] here.
Result: 2.44

Task: Supply recorded log10 DC50 for Nc1nnc(-c2ccccc2O)cc1N1CCN(c2cccc(OCCN3CCN(C(=O)CCCCCCNc4cccc5c4C(=O)N(C4CCC(=O)NC4=O)C5=O)CC3)c2)C2(CC2)C1 (stereo not shown) [Example 5] here.
Result: 1.82

Task: Supply recorded log10 DC50 for Nc1nnc(-c2ccccc2O)cc1O[C@H]1CCCN(c2ccc(N3CCN(CC4CCN(C(=O)CCCCn5cc(COc6cccc7c6C(=O)N(C6CCC(=O)NC6=O)C7=O)nn5)CC4)CC3)cc2)C1 (mixture of isomers) [Example 140] here.
Result: 2.44

FYI, the data here is from patent US20230024096A1.
